Catalogue of binders with associated No of serum samples >30% inhibition (30% CCP) without SCP (serum samples)
tgt: pre-existing anti-drug antibodies (ADA) present in human sera
assay.notes: pre-existing ADA ELISA, scFv coated, human sera unspiked vs spiked
# output: bare number, no unit

# count of solved cases: 5
PRO3349 (scFv 54-21-H03-sc01_(T101R, T146E)) (scFv, PRO1922 variant; VH substitutions, AHo numbering; also called PRO1922 T101R-T146E) scFv: DIQMTQSPSSLSASVGDRVTITCQASESIYSSLAWYQQKPGKAPKLLIYLASTLASGVPSRFSGSGSGTDFTLTISSLQPEDFATYYCQSTDYTTSTHRNSFGTGTKVTVLGGGGGSGGGGSGGGGSGGGGSEVQLVESGGGLVQPGGSLRLSCAASGFSFSTTYYMCWVRQAPGKGLEWIGCTNTASSVRTYYATWAKGRFTISRDNSKNTVYLQMNSLRAEDRAVYYCARDMGFADYALNLWGQGTLVEVSS :: 0
PRO2951 (scFv 37-20-B03-sc09.1_(T101R)) (scFv, PRO2230 variant; VH substitution, AHo numbering; also called PRO2230 T101R) scFv: DIQMTQSPASLSASVGDRVTITCQASQSIGTYLAWYQQKPGKPPKLLIYRAFILASGVPSRFSGSGSGTDFTLTISSLQPEDFATYYCQSNFYSDSTTIGPNAFGTGTKVTVLGGGGGSGGGGSGGGGSGGGGSEVQLVESGGGLVQPGGSLRLSCAASGFSFNSDYWIYWVRQAPGKGLEWIASIYGGSSGNTQYASWAQGRFTISRDNSKNTVYLQMNSLRAEDRAVYFCARGYVDYGGATDLWGQGTLVTVSS :: 0
PRO2935 (scFv 37-20-B03-sc09.1_(L144A, S148N)) (scFv, PRO2230 variant; VH substitutions, AHo numbering; also called PRO2230 L144A-S148N) scFv: DIQMTQSPASLSASVGDRVTITCQASQSIGTYLAWYQQKPGKPPKLLIYRAFILASGVPSRFSGSGSGTDFTLTISSLQPEDFATYYCQSNFYSDSTTIGPNAFGTGTKVTVLGGGGGSGGGGSGGGGSGGGGSEVQLVESGGGLVQPGGSLRLSCAASGFSFNSDYWIYWVRQAPGKGLEWIASIYGGSSGNTQYASWAQGRFTISRDNSKNTVYLQMNSLRAEDTAVYFCARGYVDYGGATDLWGQGTAVTVNS :: 8
PRO3323 (scFv 54-21-H03-sc01_(L12A, T101Q, L144A, T146Q)) (scFv, PRO1922 variant; VH substitutions, AHo numbering; also called PRO1922 L12A-T101Q-L144A-T146Q) scFv: DIQMTQSPSSLSASVGDRVTITCQASESIYSSLAWYQQKPGKAPKLLIYLASTLASGVPSRFSGSGSGTDFTLTISSLQPEDFATYYCQSTDYTTSTHRNSFGTGTKVTVLGGGGGSGGGGSGGGGSGGGGSEVQLVESGGGAVQPGGSLRLSCAASGFSFSTTYYMCWVRQAPGKGLEWIGCTNTASSVRTYYATWAKGRFTISRDNSKNTVYLQMNSLRAEDQAVYYCARDMGFADYALNLWGQGTAVQVSS :: 0
PRO3325 (scFv 54-21-H03-sc01_(T101S, T146R)) (scFv, PRO1922 variant; VH substitutions, AHo numbering; also called PRO1922 T101S-T146R) scFv: DIQMTQSPSSLSASVGDRVTITCQASESIYSSLAWYQQKPGKAPKLLIYLASTLASGVPSRFSGSGSGTDFTLTISSLQPEDFATYYCQSTDYTTSTHRNSFGTGTKVTVLGGGGGSGGGGSGGGGSGGGGSEVQLVESGGGLVQPGGSLRLSCAASGFSFSTTYYMCWVRQAPGKGLEWIGCTNTASSVRTYYATWAKGRFTISRDNSKNTVYLQMNSLRAEDSAVYYCARDMGFADYALNLWGQGTLVRVSS :: 4

Fill blank: measured No of serum samples >30% inhibition (30% CCP) without SCP (serum samples) of the binder PRO2930 (scFv 54-21-H03-sc01_(L144K, T146E, S148K)) (scFv, PRO1922 variant; VH substitutions, AHo numbering; also called PRO1922 L144K-T146E-S148K) scFv: DIQMTQSPSSLSASVGDRVTITCQASESIYSSLAWYQQKPGKAPKLLIYLASTLASGVPSRFSGSGSGTDFTLTISSLQPEDFATYYCQSTDYTTSTHRNSFGTGTKVTVLGGGGGSGGGGSGGGGSGGGGSEVQLVESGGGLVQPGGSLRLSCAASGFSFSTTYYMCWVRQAPGKGLEWIGCTNTASSVRTYYATWAKGRFTISRDNSKNTVYLQMNSLRAEDTAVYYCARDMGFADYALNLWGQGTKVEVKS is ____.
0

Fill blank: measured No of serum samples >30% inhibition (30% CCP) without SCP (serum samples) of the binder PRO2918 (scFv 54-21-H03-sc01_(L12R, V103T, L144Q)) (scFv, VH substitutions, AHo numbering; also called PRO1922-L12R-V103T-L144Q) scFv: DIQMTQSPSSLSASVGDRVTITCQASESIYSSLAWYQQKPGKAPKLLIYLASTLASGVPSRFSGSGSGTDFTLTISSLQPEDFATYYCQSTDYTTSTHRNSFGTGTKVTVLGGGGGSGGGGSGGGGSGGGGSEVQLVESGGGRVQPGGSLRLSCAASGFSFSTTYYMCWVRQAPGKGLEWIGCTNTASSVRTYYATWAKGRFTISRDNSKNTVYLQMNSLRAEDTATYYCARDMGFADYALNLWGQGTQVTVSS is ____.
5

Recorded No of serum samples >30% inhibition (30% CCP) without SCP (serum samples) of PRO2949 (scFv 37-20-B03-sc09.1_(T146E)) (scFv, PRO2230 variant; VH substitution, AHo numbering; also called PRO2230 T146E) scFv: DIQMTQSPASLSASVGDRVTITCQASQSIGTYLAWYQQKPGKPPKLLIYRAFILASGVPSRFSGSGSGTDFTLTISSLQPEDFATYYCQSNFYSDSTTIGPNAFGTGTKVTVLGGGGGSGGGGSGGGGSGGGGSEVQLVESGGGLVQPGGSLRLSCAASGFSFNSDYWIYWVRQAPGKGLEWIASIYGGSSGNTQYASWAQGRFTISRDNSKNTVYLQMNSLRAEDTAVYFCARGYVDYGGATDLWGQGTLVEVSS , please.
2

No of serum samples >30% inhibition (30% CCP) without SCP (serum samples) for PRO2950 (scFv 37-20-B03-sc09.1_(T146Q)) (scFv, PRO2230 variant; VH substitution, AHo numbering; also called PRO2230 T146Q) scFv: DIQMTQSPASLSASVGDRVTITCQASQSIGTYLAWYQQKPGKPPKLLIYRAFILASGVPSRFSGSGSGTDFTLTISSLQPEDFATYYCQSNFYSDSTTIGPNAFGTGTKVTVLGGGGGSGGGGSGGGGSGGGGSEVQLVESGGGLVQPGGSLRLSCAASGFSFNSDYWIYWVRQAPGKGLEWIASIYGGSSGNTQYASWAQGRFTISRDNSKNTVYLQMNSLRAEDTAVYFCARGYVDYGGATDLWGQGTLVQVSS ?
4
